systemTested: RET kinase V804M (Homo sapiens, UniProt P07949, V804M)
Sequence (P07949 29-1114 V804M): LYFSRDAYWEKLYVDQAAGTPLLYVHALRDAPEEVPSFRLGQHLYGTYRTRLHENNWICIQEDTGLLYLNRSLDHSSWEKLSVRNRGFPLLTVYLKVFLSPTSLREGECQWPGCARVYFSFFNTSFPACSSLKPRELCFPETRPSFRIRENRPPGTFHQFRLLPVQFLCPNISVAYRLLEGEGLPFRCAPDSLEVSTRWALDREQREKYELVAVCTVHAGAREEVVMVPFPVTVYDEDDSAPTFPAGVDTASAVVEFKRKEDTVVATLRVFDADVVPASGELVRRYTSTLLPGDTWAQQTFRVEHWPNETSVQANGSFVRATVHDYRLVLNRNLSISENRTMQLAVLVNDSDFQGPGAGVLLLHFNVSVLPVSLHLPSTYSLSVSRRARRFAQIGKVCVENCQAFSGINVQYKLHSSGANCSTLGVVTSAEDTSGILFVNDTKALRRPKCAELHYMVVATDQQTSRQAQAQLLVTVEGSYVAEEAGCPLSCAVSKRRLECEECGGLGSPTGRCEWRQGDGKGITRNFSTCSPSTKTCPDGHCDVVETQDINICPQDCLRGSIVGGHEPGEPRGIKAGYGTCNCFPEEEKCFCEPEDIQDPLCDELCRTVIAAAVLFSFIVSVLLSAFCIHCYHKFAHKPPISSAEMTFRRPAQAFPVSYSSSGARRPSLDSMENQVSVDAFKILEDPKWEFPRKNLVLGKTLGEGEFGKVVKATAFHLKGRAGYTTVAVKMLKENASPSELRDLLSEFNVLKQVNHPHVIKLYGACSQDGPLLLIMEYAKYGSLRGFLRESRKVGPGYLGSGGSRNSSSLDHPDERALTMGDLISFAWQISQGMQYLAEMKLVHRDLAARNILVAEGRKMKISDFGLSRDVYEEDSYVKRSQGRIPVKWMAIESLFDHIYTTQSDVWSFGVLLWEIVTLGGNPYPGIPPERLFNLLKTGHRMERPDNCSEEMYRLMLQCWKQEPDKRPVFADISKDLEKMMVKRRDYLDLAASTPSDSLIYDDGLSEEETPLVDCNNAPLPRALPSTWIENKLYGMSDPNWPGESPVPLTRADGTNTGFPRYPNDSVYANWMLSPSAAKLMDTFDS
measurementDescription: RET Enzyme Assay (CisBio HTRF KinEASE-TK), V804M
Type: biochemical
measurementSetup: read-out: RET V804M Enz FRET IC50
pIC50: −log10 of the molar value.
Reported pIC50 values are given for each entry in this list.
propertyLabel: pIC50

[[record]]
molecule = "CC(C)n1c2c(c3c(N)ncnc31)-c1noc(C3CC3)c1C(=O)N(CC1CC1)C2"
systemtested = "RET kinase V804M (Homo sapiens, UniProt P07949, V804M)"
measurement = 7.00

[[record]]
molecule = "Nc1ncnc2c1c1c(n2C2CC(F)(F)C2)CCC(O)c2c-1noc2C1CC1 (stereo not shown) [Example 148, 2,2,2-trifluoroacetate]"
systemtested = "RET kinase V804M (Homo sapiens, UniProt P07949, V804M)"
measurement = 6.67

[[record]]
molecule = "COC(=O)c1ccc(-n2c3c(c4c(N)ncnc42)-c2noc(C4CC4)c2C(O)CC3)cc1 (stereo not shown) [Example 113, 2,2,2-trifluoroacetate]"
systemtested = "RET kinase V804M (Homo sapiens, UniProt P07949, V804M)"
measurement = 6.77

[[record]]
molecule = "CC(C)n1c2c(c3c(N)ncnc31)-c1noc(C3CC3)c1C(=O)N(CCc1ccccc1)C2"
systemtested = "RET kinase V804M (Homo sapiens, UniProt P07949, V804M)"
measurement = 6.64


* * *

systemTested: G810S mutant RET kinase (Homo sapiens, UniProt P07949, G810S)
Sequence (P07949 29-1114 G810S): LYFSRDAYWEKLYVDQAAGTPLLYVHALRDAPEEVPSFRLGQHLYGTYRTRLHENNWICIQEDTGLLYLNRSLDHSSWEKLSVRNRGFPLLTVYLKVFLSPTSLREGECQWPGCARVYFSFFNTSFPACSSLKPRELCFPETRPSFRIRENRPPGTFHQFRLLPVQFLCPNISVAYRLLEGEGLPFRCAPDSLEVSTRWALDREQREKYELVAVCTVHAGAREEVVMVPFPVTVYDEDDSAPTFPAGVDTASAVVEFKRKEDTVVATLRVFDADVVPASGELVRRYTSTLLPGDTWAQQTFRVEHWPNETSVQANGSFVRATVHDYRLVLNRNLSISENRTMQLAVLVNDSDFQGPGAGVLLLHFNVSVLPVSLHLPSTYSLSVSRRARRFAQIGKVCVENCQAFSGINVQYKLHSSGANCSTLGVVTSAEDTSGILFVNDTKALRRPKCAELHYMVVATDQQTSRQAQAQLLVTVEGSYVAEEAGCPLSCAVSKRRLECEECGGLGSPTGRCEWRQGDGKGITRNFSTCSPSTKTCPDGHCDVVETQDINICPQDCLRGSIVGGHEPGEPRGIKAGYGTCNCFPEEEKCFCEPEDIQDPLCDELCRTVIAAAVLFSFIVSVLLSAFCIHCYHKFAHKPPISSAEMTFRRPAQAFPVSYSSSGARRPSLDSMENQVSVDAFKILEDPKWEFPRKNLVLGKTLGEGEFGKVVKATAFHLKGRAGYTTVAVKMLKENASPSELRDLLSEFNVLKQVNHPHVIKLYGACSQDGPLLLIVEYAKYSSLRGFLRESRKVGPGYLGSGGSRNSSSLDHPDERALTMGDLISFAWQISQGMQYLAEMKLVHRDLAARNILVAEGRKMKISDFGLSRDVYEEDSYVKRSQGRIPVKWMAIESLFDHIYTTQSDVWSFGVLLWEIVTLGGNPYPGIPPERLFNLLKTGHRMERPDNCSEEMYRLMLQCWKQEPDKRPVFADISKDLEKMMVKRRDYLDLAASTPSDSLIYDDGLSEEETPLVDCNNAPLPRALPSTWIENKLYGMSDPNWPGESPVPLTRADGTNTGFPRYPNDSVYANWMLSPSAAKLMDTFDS
measurementDescription: biochemical
pIC50: −log10 of the molar value.
Reported pIC50 values are given for each entry in this list.
propertyLabel: pIC50

[[record]]
compound = "CC(C)n1c2c(c3c(N)ncnc31)-c1noc(C3CC3)c1CN(c1ccn(C)n1)C2 [Example 34]"
measurement = 6.40

[[record]]
compound = "CCCN1Cc2c(c3c(N)ncnc3n2C(C)C)-c2noc(C3CC3)c2C1=O [Example 4]"
measurement = 6.87

[[record]]
compound = "CC(C)n1c2c(c3c(N)ncnc31)-c1noc(C3CC3)c1CN(CCO)C2 [Example 40, 2,2,2-trifluoroacetate]"
measurement = 6.01

[[record]]
compound = "Nc1ncnc2c1c1c(n2-c2ccccc2)CCC(O)c2c-1noc2C1CC1 (centres unmarked) [Example 118, 2,2,2-trifluoroacetate]"
measurement = 7.12

[[record]]
compound = "CC(C)n1c2c(c3c(N)ncnc31)-c1cc3ccc(C(=O)Nc4ccn(CCC(F)(F)F)n4)cc3n1CCC2 [Example 101]"
measurement = 6.09

[[record]]
compound = "Nc1ncnc2c1c1c(n2C(CF)CF)CC[C@@H](O)c2c-1noc2C1CC1 (single isomer, unassigned) [Example 127]"
measurement = 7.64

[[record]]
compound = "Nc1ncnc2c1c1c(n2C2CCCC2)CCC(O)c2c-1noc2C1CC1 (centres unmarked) [Example 120]"
measurement = 7.62

[[record]]
compound = "CNC(=O)c1ccc2cc3n(c2c1)C(=O)NCc1c-3c2c(N)ncnc2n1C(C)C [Example 73]"
measurement = 5.61


* * *

Reported IC50 values are given for each entry in this list.
systemTested: UniProt P07949
measurementDescription: biochemical
propertyLabel: IC50 (nM)

[[record]]
compound = "CNC(=O)c1ccc2cc3n(c2c1)C(=O)NCc1c-3c2c(N)ncnc2n1C(C)C [Example 73]"
measurement = 531

[[record]]
compound = "CC(C)n1c2c(c3c(N)ncnc31)-c1noc(C3CC3)c1CN(c1ccn(C)n1)C2 [Example 34]"
measurement = 227

[[record]]
compound = "CC(C)n1c2c(c3c(N)ncnc31)-c1noc(C3CC3)c1[C@H](O)CC2 (single isomer, unassigned) [Example 55]"
measurement = 8

[[record]]
compound = "Cc1ccc2cc3n(c2c1)C(=O)NCc1c-3c2c(N)ncnc2n1C(C)C [Example 80]"
measurement = 195

[[record]]
compound = "Nc1ncnc2c1c1c(n2C(CF)CF)CC[C@@H](O)c2c-1noc2C1CC1 (single isomer, unassigned) [Example 127]"
measurement = 6

[[record]]
compound = "C[C@@H](n1c2c(c3c(N)ncnc31)-c1noc(C3CC3)c1[C@H](O)CC2)C(F)(F)F (single isomer, unassigned) [Example 147, 2,2,2-trifluoroacetate]"
measurement = 14

[[record]]
compound = "Nc1ncnc2c1c1c(n2C2CCC(O)C2)CCC(O)c2c-1noc2C1CC1 (centres unmarked) [Example 129]"
measurement = 8

[[record]]
compound = "CC(C)n1c2c(c3c(N)ncnc31)-c1noc(C3CC3)c1C(=O)N(c1cnn(C)c1)C2 [Example 18]"
measurement = 153


* * *

systemTested: G810S mutant RET kinase (Homo sapiens, UniProt P07949, G810S)
measurementDescription: biochemical
pIC50: −log10 of the molar value.
propertyLabel: pIC50

[[record]]
molecule = "CC(C)n1c2c(c3c(N)ncnc31)-c1cc3c(F)cccc3n1C(=O)NC2 [Example 83]"
propertylabel = "pIC50"
measurement = 7.01

[[record]]
molecule = "COc1ccc(CCN2Cc3c(c4c(N)ncnc4n3C(C)C)-c3noc(C4CC4)c3C2=O)cc1 [Example 14]"
propertylabel = "pIC50"
measurement = 6.53

[[record]]
molecule = "CC(C)n1c2c(c3c(N)ncnc31)-c1noc(C3CC3)c1CN(C(=O)C1CC1)C2 [Example 38]"
propertylabel = "pIC50"
measurement = 6.04

[[record]]
molecule = "CC(C)n1c2c(c3c(N)ncnc31)-c1noc(C3CC3)c1C(=O)N(c1cnn(C)c1)C2 [Example 18]"
propertylabel = "pIC50"
measurement = 6.40

[[record]]
molecule = "Cc1ccc2cc3n(c2c1)C(=O)NCc1c-3c2c(N)ncnc2n1C(C)C [Example 80]"
propertylabel = "pIC50"
measurement = 6.39

[[record]]
molecule = "CC(C)n1c2c(c3c(N)ncnc31)-c1cc(C3CC3)nn1C(=O)NC2 [Example 106]"
propertylabel = "pIC50"
measurement = 5.49

[[record]]
molecule = "CC1(n2c3c(c4c(N)ncnc42)-c2noc(C4CC4)c2[C@H](O)CC3)CC1 [Example 150]"
propertylabel = "pIC50"
measurement = 7.34

[[record]]
molecule = "COC(=O)c1ccc2c(Cl)c3n(c2c1)C(=O)NCc1c-3c2c(N)ncnc2n1C(C)C [Example 75]"
propertylabel = "pIC50"
measurement = 7.29


* * *

systemTested: G810R mutant RET kinase (Homo sapiens, UniProt P07949, G810R);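 also: HTRF KinEASE-TK enzymatic assay with 1 nM recombinant RET G810R, 1 h at 22 °C, dual-wavelength ratiometric readout, 100% control without compound, 0% from pre-quenched reactions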
Sequence (P07949 29-1114 G810R): as the sequence (P07949 29-1114 V804M) above, with M776V, G782R counted along it
measurementDescription: biochemical
pIC50: −log10 of the molar value.
propertyLabel: pIC50

[[record]]
compound = "CC(C)n1c2c(c3c(N)ncnc31)-c1noc(C3CC3)c1[C@H](O)CC2 (single isomer, unassigned)"
propertylabel = "pIC50"
measurement = 7.51

[[record]]
compound = "CCN1Cc2c(c3c(N)ncnc3n2C(C)C)-c2noc(C3CC3)c2C1=O"
propertylabel = "pIC50"
measurement = 6.84

[[record]]
compound = "Nc1ncnc2[nH]c3c(c12)-c1noc(C2CC2)c1C(=O)NC3 [Example 66, 2,2,2-trifluoroacetate]"
propertylabel = "pIC50"
measurement = 5.66

[[record]]
compound = "CC(C)n1c2c(c3c(N)ncnc31)-c1noc(C3CC3)c1C(=O)NC2 [Example 19, 2,2,2-trifluoroacetate]"
propertylabel = "pIC50"
measurement = 6.99

[[record]]
compound = "CC(C)n1c2c(c3c(N)ncnc31)-c1noc(C3CC3)c1C(=O)N(C1CCN(Cc3ccccc3)C1)C2 (stereo not shown)"
propertylabel = "pIC50"
measurement = 6.27

[[record]]
compound = "CC(C)n1c2c(c3c(N)ncnc31)-c1cc3ccc(C(=O)Nc4cnn(C)c4)cc3n1CCC2"
propertylabel = "pIC50"
measurement = 5.72

[[record]]
compound = "CC(C)n1c2c(c3c(N)ncnc31)-c1cc3cc(C#N)ccc3n1C(=O)NC2"
propertylabel = "pIC50"
measurement = 6.29


* * *

systemTested: G810S mutant RET kinase (Homo sapiens, UniProt P07949, G810S);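 also: HTRF KinEASE-TK kinase assay with recombinant enzyme, 1 h at 22 °C, dual-wavelength ratiometric read-out, percent of control (DMSO-only = 100, pre-quenched reaction = 0)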
measurementDescription: biochemical
Reported IC50 values are given for each entry in this list.
propertyLabel: IC50 (µM)

[[record]]
compound = "Nc1ncnc2c1c1c(n2C(CF)CF)CCC(O)c2c-1noc2C1CC1 (stereo not drawn)"
measurement = 0.026

[[record]]
compound = "Nc1ncnc2c1c1c(n2C2CCC2)CCC(O)c2c-1noc2C1CC1 (stereo not drawn)"
measurement = 0.101

[[record]]
compound = "CC(C)n1c2c(c3c(N)ncnc31)-c1cc3ccc(C(=O)NC4(C)CC4)cc3n1CCC2"
measurement = 0.457

[[record]]
compound = "Nc1ncnc2c1c1c(n2[C@H]2C[C@@H](CO)C2)CCC(O)c2c-1noc2C1CC1 (stereo partly drawn)"
measurement = 0.817

[[record]]
compound = "CC(C)n1c2c(c3c(N)ncnc31)-c1cc3cc(Cl)ccc3n1C(=O)NC2"
measurement = 0.073

[[record]]
compound = "CC(C)n1c2c(c3c(N)ncnc31)-c1noc(C3CC3)c1[C@@H](O)[C@@H](C)C2 (relative stereo)"
measurement = 0.108

[[record]]
compound = "CC(C)n1c2c(c3c(N)ncnc31)-c1noc(C3CC3)c1C(=O)N(Cc1ccccc1)C2"
measurement = 0.356

[[record]]
compound = "CC(C)(O)[C@H]1C[C@@H](n2c3c(c4c(N)ncnc42)-c2noc(C4CC4)c2C(O)CC3)C1 (stereo partly drawn)"
measurement = 0.646

[[record]]
compound = "CC(C)n1c2c(c3c(N)ncnc31)-c1noc(C3CC3)c1[C@@H](O)[C@H](C)C2 (single isomer, unassigned) [Example 64]"
measurement = 0.076

[[record]]
compound = "CC(=O)Nc1ccc2cc3n(c2c1)CCCc1c-3c2c(N)ncnc2n1C(C)C"
measurement = 0.474

[[record]]
compound = "CNC(=O)c1ccc2c(Cl)c3n(c2c1)C(=O)NCc1c-3c2c(N)ncnc2n1C(C)C"
measurement = 0.289

[[record]]
compound = "C[C@H](n1c2c(c3c(N)ncnc31)-c1noc(C3CC3)c1[C@@H](O)CC2)C(F)(F)F (single isomer, unassigned) [Example 146, 2,2,2-trifluoroacetate]"
measurement = 0.116

[[record]]
compound = "Nc1ncnc2c1c1c(n2C2CCC(O)C2)CCC(=O)c2c-1noc2C1CC1 (mixture of isomers) [Example 128, 2,2,2-trifluoroacetate]"
measurement = 0.16

[[record]]
compound = "CC(C)n1c2c(c3c(N)ncnc31)-c1noc(C3CC3)c1C(=O)N(C1CCN(Cc3ccccc3)C1)C2 (stereo not drawn)"
measurement = 0.433

[[record]]
compound = "Nc1ncnc2c1c1c(n2C2CCOC2)CCC(O)c2c-1noc2C1CC1 (stereo not drawn)"
measurement = 0.084

[[record]]
compound = "COC1CCc2c(c3c(N)ncnc3n2C(C)C)-c2noc(C3CC3)c21 (racemic)"
measurement = 0.094

[[record]]
compound = "CO[C@@H]1CCc2c(c3c(N)ncnc3n2C(C)C)-c2noc(C3CC3)c21 (single isomer, unassigned)"
measurement = 0.159

[[record]]
compound = "CC(C)n1c2c(c3c(N)ncnc31)-c1noc(C3CC3)c1[C@H](O)[C@@H](C)C2 (single isomer, unassigned)"
measurement = 0.133

[[record]]
compound = "CC(C)n1c2c(c3c(N)ncnc31)-c1cc3ccc(C(=O)NC4CC4)cc3n1CCC2"
measurement = 0.204

[[record]]
compound = "COC(=O)c1ccc2cc3n(c2c1)C(=O)NCc1c-3c2c(N)ncnc2n1C(C)C"
measurement = 0.312

[[record]]
compound = "CC(C)n1c2c(c3c(N)ncnc31)-c1noc(C3CC3)c1S(=O)(=O)N(C)C2"
measurement = 0.075

[[record]]
compound = "CC(C)n1c2c(c3c(N)ncnc31)-c1noc(C3CC3)c1C(=O)NC2 [Example 19, 2,2,2-trifluoroacetate]"
measurement = 0.215

[[record]]
compound = "CC(C)n1c2c(c3c(N)ncnc31)-c1cc3ccccc3n1C(=O)NC2"
measurement = 0.065

[[record]]
compound = "Nc1ncnc2c1c1c(n2C2CCCC2)CCC(O)c2c-1noc2C1CC1 (single isomer, unassigned) [Example 124]"
measurement = 0.049

[[record]]
compound = "CO[C@@H]1CCc2c(c3c(N)ncnc3n2C2(C)CC2)-c2noc(C3CC3)c21"
measurement = 0.055

[[record]]
compound = "COCCn1ccc(NC(=O)c2ccc3cc4n(c3c2)CCCc2c-4c3c(N)ncnc3n2C(C)C)n1"
measurement = 0.393

[[record]]
compound = "Cc1ccc2c(c1)cc1n2C(=O)NCc2c-1c1c(N)ncnc1n2C(C)C"
measurement = 0.052

[[record]]
compound = "CNC1CCc2c(c3c(N)ncnc3n2C(C)C)-c2noc(C3CC3)c21 (stereo not drawn)"
measurement = 0.581

[[record]]
compound = "CC(C)n1c2c(c3c(N)ncnc31)-c1noc(C3CC3)c1CN(S(C)(=O)=O)C2 [Example 35, 2,2,2-trifluoroacetate]"
measurement = 0.11

[[record]]
compound = "CC(C)n1c2c(c3c(N)ncnc31)-c1cc3cc(C#N)ccc3n1C(=O)NC2"
measurement = 0.72

